Numbers sourced from paper doi:10.1101/2024.02.20.581179v1.

# tested.system: eIF4E-1d1 (Amphidinium carterae, UniProt A0A0X9VJN7)
# Construct: gene eIF4E-1d; N-terminal GST tag (TEV site), E. coli, GST-fusion dimer, tag kept (SPR); S-tagged in vitro translated protein in bead assay
# Sequence (A0A0X9VJN7 1-239): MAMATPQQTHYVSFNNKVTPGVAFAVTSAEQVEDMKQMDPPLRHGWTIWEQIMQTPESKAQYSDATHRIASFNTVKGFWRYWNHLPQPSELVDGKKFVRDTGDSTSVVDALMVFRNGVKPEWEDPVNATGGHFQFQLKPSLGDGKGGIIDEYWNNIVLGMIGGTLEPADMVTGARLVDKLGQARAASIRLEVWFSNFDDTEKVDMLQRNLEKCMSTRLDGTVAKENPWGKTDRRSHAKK
# assay.protocol: SPR, Biacore T-200, kinetic fit
# Assay type: binding
property.label: pKd
Units for pKd: none; it is -log10 of a concentration expressed in mol/L.

Task: Name the reported pKd value associated with the compound C[n+]1cn([C@@H]2O[C@H](COP(=O)(O)OP(=O)(O)OP(=O)(O)OC[C@H]3O[C@@H](n4ccc(N)nc4=O)[C@H](O)[C@@H]3O)[C@@H](O)[C@H]2O)c2nc(N)[nH]c(=O)c21 [m^7GpppC]
Output: 4.08
